What Rel. CTS Specificity as % of MBG Binding: RBG was measured for each of the following?
experiment: Competitive ELISA, relative CTS specificity, RBG as competitor; type: binding; details: competition with immobilized MBG-BSA; normalized to MBG = 100%
Answers are plain numbers, in %.

Reference set (2 entries):
[
  {
    "Molecule": "236/237: human anti-MBG antibody, VH SEQ ID NO: 14, VL SEQ ID NO: 15 (antibody, listed as Homo sapiens, V domains shown) VH: QVQLQESGPGLVKPSETLSLTCTVSGGSISSSSYYWGWIRQPPGKGLEWIGSIYYSGSTYYNPSLKSRVTISVDTSKNQFSLKLSSVTAADTAVYYCARARYNWNYVLFDYWGQGTLVTVSS VL: QAVLTQPSSVSAAPRQRVTISCSGSASNIGRNGVSWYHQVPGKAPRLLLSHDGLVTSGVPDRLSVSKSGTSASLAISGLHSDDEGDYYCAVWDDSLNAVVFGGGTKLTVLS",
    "Unit abbreviation": "%",
    "Test value": 0
  },
  {
    "Molecule": "203/204: human anti-MBG antibody, VH SEQ ID NO: 30, VL SEQ ID NO: 31 (antibody, listed as Homo sapiens, V domains shown) VH: QLQLQESGPGLVKPSETLSLTCTVSGGSISSYYWGWIRQPPGKGLEWIGSIYYSGSTYYNPSLKSRVTISVDTSKNQFSLQLKSVTPEDTAVYYCARVRPPAATFDYWGQGTLVTVSS VL: QSVVTQPPSVSAAPGQKVSISCSGGSSNIGNNYVSWYQQLPGTAPRLLIYENNNRPSGIPDRFSGSKSGTSATLGITGLQTGDEADYYCGTWDSSLRAVVFGGGTKLTVL",
    "Unit abbreviation": "%",
    "Test value": 10
  }
]

Below are some molecules; for each one, tell me its Rel. CTS Specificity as % of MBG Binding: RBG.
1. 206/208: human anti-MBG antibody, VH SEQ ID NO: 36, VL SEQ ID NO: 37 (antibody, listed as Homo sapiens, V domains shown) VH: QVQLQESGPGLVKPSETLSLTCTVSGGSISSSSYYWGWIRQPPGKGLEWIGSIYYSGSTYYNPSLKSRVTISVDTSKNQFSLKLSSVTAADTAVYYCARVNLRGAFDIWGQGTTVTVSS VL: QSVVTQPPSVSGAPGQRVTISCTGSSSNIGAGYDVHWYQQLPGTAPKLLIYENNKRPSGIPDRFSGSKSGTSATLGITGLQTGDEADYYCGTWDSSLSAVVFGGGTKLTVL
2. 201/202: human anti-MBG antibody, VH SEQ ID NO: 22, VL SEQ ID NO: 23 (antibody, listed as Homo sapiens, V domains shown) VH: QLQLQESGPGLVKPSQTLSLTCTVSGGSISSGGYYWGWIRQPPGKGLEWIGSIYYSGNTYYNPSLKSRVTISVDTSKNQFSLKLSSVTAADTAVYYCARASIAARTFDYWGQGTLVTVSS VL: QSVLTQPPSVSAAPGQKVTISCSGSSSNIGNNYVSWYQQLPGTAPKLLIYDNNKRPSGIPDRFSGSKSGTSATLGITGLQTGDEADYYCGTWDSSLSAYVFGTGTKVTVL
3. H3L2: humanized anti-MBG antibody, VH H3 (SEQ ID NO: 11) with VL L2 (SEQ ID NO: 13) (antibody, V domains shown, Humanized VH sequence; Humanized VL sequence) VH: EVQLQESGPGLVKPSETLSLTCTVSGDSITSGYWNWIRQPPGKGLEYMGYISYSGTTYYNPSLKSRITISRDTSKNQYSLKLSSVTAADTAVYYCARARYGYGFDYWGQGTLVTVSS VL: DVVMTQSPLSLPVTLGQPASISCRSSQSIVHSNRNTYLEWYQQRPGQSPRLLIYKVSNRFSGVPDRFSGSGSGTDFTLKISRVEAEDVGVYYCFQGSHVPLTFGGGTKVEIK

Response line:
1: 20; 2: 50; 3: 0
